Sourced from patent US20080207614A1

Tested on: AMPK
Assay: Measurement of AMPK activity by Western blot in C2C12 cells
Assay type: cell-based
Design: key: fold increase in threonine-172 phosphorylation
Settings: 10 μM for 50 minutes, no superscript: Western blot of serine-79 and threonine-172 phosphorylation
Mark class 1 for AMPK activity (degree of phosphorylation of serine-79 and threonine-172) under 5, class 0 if at or over.

| Chemical string | Assigned class |
| --- | --- |
| COc1cc(CNc2nc(C3CC3)nc3ccccc23)cc(OC)c1 | class 1 |
| COc1ccc(CNc2nc(C(C)C)nc3ccccc23)cc1OC | class 1 |
| CCCc1nc(NCc2ccc(OC)cc2)c2ccccc2n1 | class 0 |
| CC(C)c1nc(NCc2ccccc2)c2ccccc2n1 | class 1 |
| Clc1cccc(CNc2nc(-c3ccccc3)nc3ccccc23)c1Cl | class 1 |
| Cc1nc(NCc2cccc3ccccc23)c2ccccc2n1 | class 0 |
